procedure-text: mitochondrial membrane potential change in A549 cells, profiling panel, cell-based, JC-1 fluorescence, basal, 24 h, 100 nL (AID 1138);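 further: A549 lung adenocarcinoma cells under basal conditions with no added stimulus; test concentration not given here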
run-conditions: higher = more signal
measured-metric: z-score
// keep it numeric: no unit symbol after the value

Reference set (4 entries):
compound | z-score
CO[C@H]1O[C@H](CO)[C@@H](OC(=O)Nc2ccc(C(F)(F)F)cc2)[C@H](OC(=O)Nc2ccc3c(c2)OCO3)[C@@H]1OC(=O)Nc1ccc2c(c1)OCO2 | -0.656
COC(=O)[C@H](Cc1ccccc1)N1CC2=C[C@@H](C3CC3)n3c(=O)n(C)c(=O)n3[C@H]2[C@@H]1[C@@H](O)Cc1ccccc1 | 1.58
COC(=O)[C@@]1(Cc2ccc(F)cc2)[C@H]2c3cc(C(=O)N(C)C)n(Cc4ccc(Cl)c(C(F)(F)F)c4)c3C[C@H]2CN1C(=O)c1ccccc1 | 1.98
COc1ccc(CCNC(=O)[C@@]2(C)c3ccccc3C(=O)N(C(C)C)[C@H]2c2ccc(CO)cc2)cc1 | 0.537

Which value of z-score has been reported for COCCCNC(=O)[C@@H]1c2ccccc2C(=O)N(Cc2ccccc2Cl)[C@H]1c1ccc(CO)cc1 in the records?
2.35

Now this one: O=C1c2ccccc2[C@](Cc2ccccc2I)(C(=O)NCCN2CCOCC2)[C@H](c2ccc(CO)cc2)N1Cc1ccccc1Cl
1.87

Query O=C(NCCN1CCOCC1)C1N=C(c2ccc(OCCCO)cc2)N(c2ccccc2)O1 (stereo not given) next
1.23

Now give it for COC(=O)[C@@]1(Cc2ccc(OC)cc2)[C@H]2c3cc(C(=O)N4CCCC4)n(Cc4ccc(C)c(F)c4F)c3C[C@H]2CN1C(=O)c1ccccc1 too.
1.41

Would you kindly repeat that for Cc1ccc([C@@H]2C[C@@H](Sc3ccccc3)[C@H](C(=O)O)CN2S(=O)(=O)c2ccc(C)cc2)cc1 ?
-1.42
